molecular target: ASIC1a (Homo sapiens, UniProt P78348); assay: Calcium imaging of MES-induced calcium response (FLIPR); type: cell-based; design: host or cells: HEK293
RECORDED_ENDPOINT: IC50

The recorded IC50 for entry `CN1CCc2c(-c3ccccc3)cc(C#N)c(N)c2C1` equals < 10 µM

====

target: ASIC1a (Homo sapiens, UniProt P78348); experiment: Two-electrode voltage clamp in Xenopus laevis oocytes (Xo), acid-induced currents; format: cell-based; set-up: expressed in transfected cells; host or cells: Xenopus laevis oocytes (nuclear microinjection of expression vector such as pcDNA3); conditions: 50 μM, Xenopus oocytes; read-out: % inh. at 50 μM (Xo)
Quick reference: inhibition at 50 µM of the listed items.

Below, 5 molecules whose answers are already recorded.
| MOLECULE | TARGET_ENTITY | inhibition at 50 µM |
| --- | --- | --- |
| COc1ccc(F)cc1Oc1cc2c(c3c1CCN(C)C3)NC(=O)/C2=N/O | ASIC1a (Homo sapiens, UniProt P78348) | 50 to 70% |
| CN1CCc2c(-c3ccccc3)cc3ncc(O)nc3c2C1 | ASIC1a (Homo sapiens, UniProt P78348) | < 25% |
| CCOC(=O)CNc1ccc(-c2ccccc2)c2c1CN(C(=O)OCC)CC2 | ASIC1a (Homo sapiens, UniProt P78348) | < 25% |
| CCOC(=O)N1CCc2c(-c3ccccc3)ccc(CN(CC(=O)O)Cc3ccccc3)c2C1 | ASIC1a (Homo sapiens, UniProt P78348) | < 25% |
| COc1ccc(F)cc1Oc1ccc([N+](=O)[O-])c2c[n+](C)ccc12 | ASIC1a (Homo sapiens, UniProt P78348) | < 25% |

Record `CCOC(=O)N1CCc2c(-c3ccccc3)ccc([N+](=O)[O-])c2C1` . Reported inhibition at 50 µM: 20 to 40%

Reported inhibition at 50 µM ( `CN1CCc2c(-c3ccccc3)cc3c(c2C1)NC(=O)C3=NNC(=O)C(N)=O` ) = 20 to 40%

inhibition at 50 µM measured on `CN1CCc2c(-c3ccccc3)cc3c(c2C1)NCC31OCCO1` = < 25%

`CCOC(=O)CN(C(C)=O)c1ccc(-c2ccccc2)c2c1CN(C(=O)OCC)CC2` has a reported inhibition at 50 µM of < 25%

====

Target: ASIC1a (Homo sapiens, UniProt P78348)
Experiment: Calcium imaging of MES-induced calcium response (FLIPR)
Type: cell-based
Design: host or cells: HEK293
Conditions: ASIC1a expressing HEK293 cells, MES-induced calcium response; read-out: IC50 (FLIPR)
Protocol: […] Confluency of cells should be 80-90% on day of plating. Cells are rinsed with 10 ml of PBS and cells are re-suspended by addition of culture medium and trituration with a 25 ml pipette. […] Following the second wash, 100 μl modified Assay Buffer is added to each well and the fluorescence is measured in FLIPR™ or FlexStation™ (Molecular Devices, USA), or any other suitable equipment known to the skilled in the art. […]
Measured IC50 values are reported for all entries that follow.

| GIVEN_SMILES | IC50 |
| --- | --- |
| CN1CCc2c(-c3ccc(S(=O)(=O)N4CCN(CCO)CC4)cc3)cc3c(c2C1)NC(=O)C3=NO | > 70 µM |
| CCOC(=O)CN(C(C)=O)c1ccc(-c2ccccc2)c2c1CN(C(=O)OCC)CC2 | 50 to 70 µM |
| CCOC(=O)/C=C1/C(=O)Nc2c1cc(-c1ccccc1)c1c2CN(C)CC1 | > 70 µM |
| CCOc1ccccc1-c1cc2c(c3c1CCN(C)C3)NC(=O)/C2=N/O | < 10 µM |
| CN1CCc2c(-c3ccccc3)cc3cc[nH]c3c2C1 | > 70 µM |

What the record says about `COc1c(F)cc(F)cc1-c1cc2c(c3c1CCN(C)C3)NC(=O)/C2=N/O` : IC50 is > 70 µM

The molecule listed as `CN1CCc2c(-c3ccc(C(=O)N(C)C)cc3)cc3c(c2C1)NC(=O)C3=NO` has a reported IC50 of > 70 µM

What the record says about `Cc1ccccc1-c1cc2c(c3c1CCN(C)C3)NC(=O)/C2=N/O` : IC50 is < 10 µM

====

molecular target: ASIC1a (Homo sapiens); test: Calcium imaging of MES-induced calcium response (FLIPR); type: cell-based; design: host or cells: HEK293; conditions: ASIC1a expressing HEK293 cells, MES-induced calcium response; read-out: IC50 (FLIPR)
pIC50: −log10 of the molar value.
This section presents compounds with their documented pIC50 values.

Note to self: pIC50 recorded for O=C(/C=N/O)Nc1ccc(-c2ccccc2)c2ccncc12 [Compound 152] was < 4.15

====

Listed here: items and their measured IC50.
biological target: ASIC1a (Homo sapiens, UniProt P78348); test: Calcium imaging of MES-induced calcium response (FLIPR); format: cell-based; parameters: host or cells: HEK293; conditions: ASIC1a expressing HEK293 cells, MES-induced calcium response; read-out: IC50 (FLIPR)

Reported IC50 for `CN1CCc2c(-c3ccccc3)cc(C(N)=O)c(N)c2C1` was > 70 µM

Recorded IC50 (molecule `CN1CCc2c(-c3ccccc3F)cc3c(c2C1)NC(=O)/C3=N/O` ): < 10 µM

Measured IC50, `CN1CCc2c(-c3cccc(F)c3F)cc3c(c2C1)NC(=O)/C3=N/O` : < 20 µM

Entry under test: `CN1CCc2c(-c3ccccc3)cc3c(c2C1)NC(=O)/C3=N\NC(N)=O` . Its IC50 was 40 to 60 µM

The reported IC50 of the molecule `CN1CCc2c(-c3ccccc3)ccc(NCC(=O)O)c2C1` was > 70 µM

====

Biological target: ASIC1a (Homo sapiens, UniProt P78348)
Sequence (P78348 1-528): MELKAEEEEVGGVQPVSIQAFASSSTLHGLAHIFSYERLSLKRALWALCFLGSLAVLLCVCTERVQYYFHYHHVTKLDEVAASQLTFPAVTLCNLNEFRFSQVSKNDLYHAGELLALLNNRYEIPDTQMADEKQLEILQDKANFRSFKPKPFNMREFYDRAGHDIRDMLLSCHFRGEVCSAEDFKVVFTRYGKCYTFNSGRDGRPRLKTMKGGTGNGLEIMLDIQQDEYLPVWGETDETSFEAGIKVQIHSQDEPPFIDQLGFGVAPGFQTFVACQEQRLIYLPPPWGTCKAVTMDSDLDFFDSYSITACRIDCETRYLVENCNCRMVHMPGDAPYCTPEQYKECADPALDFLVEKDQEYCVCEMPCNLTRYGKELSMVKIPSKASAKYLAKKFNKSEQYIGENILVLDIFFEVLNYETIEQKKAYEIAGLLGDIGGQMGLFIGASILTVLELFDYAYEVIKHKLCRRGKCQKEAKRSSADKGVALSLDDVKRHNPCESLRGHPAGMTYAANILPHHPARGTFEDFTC
Experiment: Whole cell patch clamp in HEK293 cells transfected with hASIC1a
Type: cell-based
Design: expressed in transfected cells; host or cells: Xenopus laevis oocytes (nuclear microinjection of expression vector such as pcDNA3)
Conditions: HEK293 cells, whole cell patch clamp, six point dose-response; read-out: IC50, inhibition of acid-induced hASIC1a activity
RECORDED_ENDPOINT: pIC50
Formally, pIC50 is defined as -log10 of the concentration c, with c in mol/L.

Measured pIC50, COc1ccc(F)cc1-c1cc(C#N)c(N)c2c1CCN(C)C2 [Compound 206] : 4.55

====

target: ASIC1a (Homo sapiens, UniProt P78348); assay: Two-electrode voltage clamp in Xenopus laevis oocytes (Xo), acid-induced currents; type: cell-based; set-up: expressed in transfected cells; host or cells: Xenopus laevis oocytes (nuclear microinjection of expression vector such as pcDNA3); settings: Xenopus laevis oocytes, three point dose-response; read-out: IC50, half maximal inhibition of the acid-evoked response in hASIC1a
RECORDED_ENDPOINT: pIC50
Formally, pIC50 is defined as -log10 of the concentration c, with c in mol/L.

pIC50 for `COc1ccc(F)cc1-c1cc(C#N)c(N)c2c1CCN(C)C2` is 4.47

====

target: ASIC1a (Homo sapiens, UniProt P78348); experiment: Two-electrode voltage clamp in Xenopus laevis oocytes (Xo), acid-induced currents; type: cell-based; parameters: expressed in transfected cells; host or cells: Xenopus laevis oocytes (nuclear microinjection of expression vector such as pcDNA3); settings: Xenopus oocytes, table value; read-out: IC50 (Xo)
pIC50: −log10 of the molar value.
RECORDED_ENDPOINT: pIC50

Short answer for `CCOC(=O)CNc1ccc(-c2ccccc2)c2c1CN(C)CC2` : pIC50 was < 4.30

====

target: ASIC1a (Homo sapiens, UniProt P78348); experiment: Two-electrode voltage clamp in Xenopus laevis oocytes (Xo), acid-induced currents; format: cell-based; set-up: expressed in transfected cells; host or cells: Xenopus laevis oocytes (nuclear microinjection of expression vector such as pcDNA3); details: 50 μM, Xenopus oocytes; read-out: % inh. at 50 μM (Xo)
RECORDED_ENDPOINT: inhibition at 50 µM

// below: answered compounds
| COMPOUND | RECORDED_ENDPOINT | RESULT |
| --- | --- | --- |
| CN1CCc2c(-c3ccccc3)cc3c(c2C1)NC(=O)C3=NNC(=O)c1ccc(O)cc1O [Compound 113] | inhibition at 50 µM | < 25% |
| COc1ccc(C=O)cc1-c1cc2c(c3c1CCN(C)C3)NC(=O)/C2=N/O [Compound 30] | inhibition at 50 µM | 40 to 60% |
| COC(=O)c1ccccc1CO/N=C1/C(=O)Nc2c1cc(-c1ccccc1)c1c2CN(C)CC1 [Compound 65] | inhibition at 50 µM | 20 to 40% |
| CC(C)(C)OC(=O)N1CCc2c(-c3ccccc3)ccc(NCC(=O)O)c2C1 [Compound 165] | inhibition at 50 µM | 20 to 40% |
| CCOC(=O)/C=C1/C(=O)Nc2c1cc(-c1ccccc1)c1c2CN(C)CC1 [Compound 92] | inhibition at 50 µM | < 25% |

Value of measured inhibition at 50 µM for the entry CN1CCc2c(-c3ccccc3)cc3c(c2C1)NC(=O)/C3=C/c1ccccc1C(=O)O [Compound 82] : < 25%

Looking up CN1CCc2c(-c3ccccc3)cc3c(O)cc(=O)[nH]c3c2C1 [Compound 94] , I see its inhibition at 50 µM listed as < 25%

For reference, reported inhibition at 50 µM for COc1ccc(F)cc1Nc1ccc(N)c2c1CCN(C)C2 [Compound 7] stands at < 25%
